Data origin, for the record: the supplement of paper PMC9170038

Each entry below carries its reported apparent KD of K4 kissing-loop reporter.
# Tested on: K4 kissing-loop RNA reporter;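 further: bound reporter read as fluorescence of individual clusters on recovered sequencing chips by microscopy, with normalized cluster intensities fitted with a binding model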
# Method Summary: apparent KD of K4 kissing-loop reporter; higher = weaker reporter binding
# Experimental Conditions: Eterna round: R107; input ligand: tryptophan 2.4 mM
Readout Type: apparent KD of K4 kissing-loop reporter (nM)

1) CGAGUCCUGAGGAGUGAUGUUCCUCGGCCACGAGGACCGGUACGGCCGCCACUCGUUACUCGGGCUUAGUAGCUAGCACUAAGCU [Quedmaon]    101
2) GAUAUAGUGAUGUUAUAUGGGAAGGAGUUACGAGGACCGGUACGGCCGCCACUCGAAACGAGUGAGGAUUUGGGAGAUUGGGUUU [SSTryptA.R]    235
3) AAUCCUAACGGAGUGAUGUUCCGUAGCGAUACCAGCCAUUGCGAUGGCCCUUGGCAGCGCUAUAAGCAUUGCUAGUAAGGGCCAA [Theo A Ex t7]    159
4) UUGAGCCUGACGUAAGUCAGGCUCUGCGAGCGAGGACCGGUACGGCCGCCACUCGGUGCAGUGAUGUUGCAUGGCCGCAAGGCCG [#2 Exclusion - Tryptophan A Attempt #15 (HarryS)]    339
5) UACCUGCUGUCAGGAUAUGAGUGCAGUGAUGUUGCACUCAACGUAACCAUCUUGAAAUGCAAACACUCAGAAGGGACGCGCGAAG [Onaninso]    102
6) AAUUUAUAUUUAUUCUUUAAUUGUUCAGAAGGAGCGUGAAUUAUCACAGGUAGGUCGCUGAGCUAGUGAUGUUAGCUAUAUACUA [JR_ExcArginiA_Sub008]    58.4
7) ACUAGAAAACCAGUGAUGUUGGCCUGGGAUACCAGCUUCUAUUAUAGCCCUUGGCAGCCCUUUAGUACAAGUGACCUUGCGACCG [theeternabot_sameState_KL_Theo_A_9]    277
8) UGACAUUGCUCAGAUACCAGACUUGAGGAUCACCCAAGUGCCAAAUAAACGUACAUAAAAGUCCCUUGGCAGCUGAGCAAUGUCU [TheoBX 11]    33.4
9) AGGUCACUACUACAGUGAUGUUGUGGAGAGCAGGAUAUGCAGAAAUGCAGAAGGGCUCGCUCUCAGUGACCGAAUGAAACAUUCA [Omei KL FMN A SS A v8]    838
10) AUAUGCUUAGCGGCCGCCACUCCAAUUGGCCGAAAGGCCUGAUACCGAGUGAUGUUCGGUUGGAGGAGGACCGGGCUAGGCGUAU [#2 Exclusion - Tryptophan B Attempt #1 (HarryS)]    141
11) UAGAGUCACAAGACAGUGAUGUUGUCUACUGAGGAUAUCAUGAAUAUGAGAAGGCAGUGUUGGAGGUCUCUAACAACAGACUCUG [FMN A SS t3]    280
12) AGCUCAGAGUGACUCGAUAAGAGUCACAAACGAGGACCGGUACGGCCGCCACUCGAAAUAAGGAGAGUGAUGUUCUCGCUGAGCA [FiskerMod 8 - Jieux - Same State Tryptophan A]    345
13) AGAGUUAUGCGAGGAUAUGCAGUUAGUACUCAAAGAGUACUAACGCAGAGUGAUGUUCUGUGAAAAGCAGAAGGUGCAUAACUCA [Omei KL FMN B SS B v6]    669
